These data points were gathered from PubChem BioAssay (NCI).

System: NCI-H226 lung
Test: NCI tumour cell line growth inhibition, 48 h
Provide the recorded TGI for the entries that follow.

Inquiry: # query: TGI of entry C/C=N\n1c(C)n[nH]c1=O
Reply text: > 100 µM

Inquiry: Same again, this time with CN(C)c1ccc(/C=C2\Oc3ccccc3C2=O)cc1
Reply text: > 100 µM

Inquiry: Quick one: O=C(CON1C(=O)c2ccccc2C1=O)c1ccccc1
Reply text: > 100 µM

Inquiry: Request: CCN(CC)CCN1C=CC(C)C(C(=O)O)C1C(N)=O (centres undefined)
Reply text: > 100 µM

---

Tested on: KM12 colon
Test: NCI tumour cell line growth inhibition, 48 h
Measured metric: TGI

Inquiry: Please look up its TGI: CC(C)NCC(O)c1cc(OCc2ccccc2)c(OCc2ccccc2)cc1NC(=O)CCC(=O)O (configuration not stated)
Reply text: 9.51 µM

Inquiry: Repeat with COc1cc(OC)cc(C(=O)NC2=C(Cl)C(=O)c3ccccc3C2=O)c1
Reply text: 10.4 µM

Inquiry: Now this one: Cc1cccc(C)c1NC(=O)/C(Cc1nc2ccc([N+](=O)[O-])cc2[nH]c1=O)=N\NC(N)=O
Reply text: > 100 µM

Inquiry: Also check Cc1c(C(=O)O)n(-c2ccc(Cl)cc2)c2ncnc(N)c12
Reply text: > 100 µM

Inquiry: Next record, please: CCOC(=O)C1C(=O)C(C(=O)OCC)C(c2ccccc2)N(C)C1c1ccccc1 (configuration not stated)
Reply text: > 100 µM

Inquiry: Moving on to the next compound: COc1cccc2c(Nc3ccc(S(=O)(=O)Nc4ncccn4)cc3)c3ccc([N+](=O)[O-])cc3nc12
Reply text: > 100 µM

Inquiry: Same again, this time with CCOc1cc2c[n+](C)c3c4cc(OC)c(OC)cc4ccc3c2cc1OC
Reply text: > 100 µM
